Attribution: ChEMBL document CHEMBL1158499

# reported LD50; entries follow
- test.name: Toxicity in po dosed mouse
- Type: organism-based
- condition.context: in vivo
# answer = value followed by unit

COc1ccc2cc([C@@H](O)[C@@H](C)N3CCN(Cc4ccccc4)CC3)ccc2c1Cl :: 200 mg/kg

Moving on to the next molecule.
Looking up `COc1ccc2cc([C@@H](O)[C@H](C)N3CCN(Cc4ccccc4)CC3)ccc2c1Cl` , I see its LD50 listed as 1030 mg/kg

====

- target.or.test.system: Sodium-dependent serotonin transporter (Rattus norvegicus)
- Sequence (P31652 whole entry): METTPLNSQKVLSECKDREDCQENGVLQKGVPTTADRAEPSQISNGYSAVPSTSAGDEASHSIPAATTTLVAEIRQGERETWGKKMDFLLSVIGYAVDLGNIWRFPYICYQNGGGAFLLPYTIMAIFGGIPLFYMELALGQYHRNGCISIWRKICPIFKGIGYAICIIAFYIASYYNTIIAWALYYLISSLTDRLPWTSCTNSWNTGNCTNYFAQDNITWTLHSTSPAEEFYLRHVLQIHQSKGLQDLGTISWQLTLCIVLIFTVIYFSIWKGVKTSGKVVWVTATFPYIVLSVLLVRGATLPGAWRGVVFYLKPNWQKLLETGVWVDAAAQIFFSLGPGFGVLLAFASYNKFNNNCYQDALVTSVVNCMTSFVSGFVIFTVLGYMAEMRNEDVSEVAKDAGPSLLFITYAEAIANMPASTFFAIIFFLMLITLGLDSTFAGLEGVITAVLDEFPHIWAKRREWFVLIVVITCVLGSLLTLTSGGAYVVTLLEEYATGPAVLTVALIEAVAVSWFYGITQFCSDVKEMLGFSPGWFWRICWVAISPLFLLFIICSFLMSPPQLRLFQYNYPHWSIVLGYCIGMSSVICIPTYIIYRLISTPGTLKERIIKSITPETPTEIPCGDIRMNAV
- test.name: Inhibition of [3H]5HT reuptake at rat brain frontal cortex serotonin transporter
# reported pIC50; entries follow
As a rule, pIC50 stands for the negative log10 of the concentration, concentration in M.

Reading of pIC50 for `COc1ccc2cc([C@@H](O)[C@@H](C)N3CCN(Cc4ccccc4)CC3)ccc2c1Cl` with Sodium-dependent serotonin transporter (Rattus norvegicus): 6.43

Reading of pIC50 for `COc1ccc2cc([C@H](O)[C@@H](C)N3CCN(Cc4ccccc4)CC3)ccc2c1Cl` with Sodium-dependent serotonin transporter (Rattus norvegicus): 6.26

Reading of pIC50 for `COc1ccc2cc([C@H](O)[C@H](C)N3CCN(Cc4ccccc4)CC3)ccc2c1Cl` with Sodium-dependent serotonin transporter (Rattus norvegicus): 6.08

====

- target.or.test.system: UniProt:Q63380
- Sequence (Q63380 whole entry): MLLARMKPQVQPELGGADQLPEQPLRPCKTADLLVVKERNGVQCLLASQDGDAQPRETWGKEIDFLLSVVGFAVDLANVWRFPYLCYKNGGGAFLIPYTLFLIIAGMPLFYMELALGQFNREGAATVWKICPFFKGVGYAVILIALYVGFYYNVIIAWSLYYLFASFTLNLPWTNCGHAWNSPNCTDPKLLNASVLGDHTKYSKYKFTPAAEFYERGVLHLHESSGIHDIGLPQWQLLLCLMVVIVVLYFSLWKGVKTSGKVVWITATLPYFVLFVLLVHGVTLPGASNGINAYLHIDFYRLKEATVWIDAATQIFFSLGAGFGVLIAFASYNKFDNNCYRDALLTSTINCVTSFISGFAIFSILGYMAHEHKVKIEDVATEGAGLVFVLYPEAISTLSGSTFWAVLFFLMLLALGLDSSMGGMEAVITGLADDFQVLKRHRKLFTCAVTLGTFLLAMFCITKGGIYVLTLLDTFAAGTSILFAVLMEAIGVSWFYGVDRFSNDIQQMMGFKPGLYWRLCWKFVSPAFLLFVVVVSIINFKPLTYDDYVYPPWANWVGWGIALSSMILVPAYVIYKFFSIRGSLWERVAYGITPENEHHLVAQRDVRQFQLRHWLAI
- test.name: Inhibition of [3H]norepinephrine reuptake at rat brain frontal cortex norepinephrine transporter
reported.endpoint: pIC50
As a rule, pIC50 stands for the negative log10 of the concentration, concentration in M.

Answered examples (3):
COc1ccc2cc([C@@H](O)[C@H](C)N3CCN(Cc4ccccc4)CC3)ccc2c1Cl :: 6.73
COc1ccc2cc([C@H](O)[C@@H](C)N3CCN(Cc4ccccc4)CC3)ccc2c1Cl :: 5.15
COc1ccc2cc([C@H](O)[C@H](C)N3CCN(Cc4ccccc4)CC3)ccc2c1Cl :: 6.37

Moving on to the next compound.
Looking up `COc1ccc2cc([C@@H](O)[C@@H](C)N3CCN(Cc4ccccc4)CC3)ccc2c1Cl` , I see its pIC50 listed as 5.90

====

# reported IC50; entries follow
- target.or.test.system: Sodium-dependent dopamine transporter (Rattus norvegicus)
- Sequence (P23977 whole entry): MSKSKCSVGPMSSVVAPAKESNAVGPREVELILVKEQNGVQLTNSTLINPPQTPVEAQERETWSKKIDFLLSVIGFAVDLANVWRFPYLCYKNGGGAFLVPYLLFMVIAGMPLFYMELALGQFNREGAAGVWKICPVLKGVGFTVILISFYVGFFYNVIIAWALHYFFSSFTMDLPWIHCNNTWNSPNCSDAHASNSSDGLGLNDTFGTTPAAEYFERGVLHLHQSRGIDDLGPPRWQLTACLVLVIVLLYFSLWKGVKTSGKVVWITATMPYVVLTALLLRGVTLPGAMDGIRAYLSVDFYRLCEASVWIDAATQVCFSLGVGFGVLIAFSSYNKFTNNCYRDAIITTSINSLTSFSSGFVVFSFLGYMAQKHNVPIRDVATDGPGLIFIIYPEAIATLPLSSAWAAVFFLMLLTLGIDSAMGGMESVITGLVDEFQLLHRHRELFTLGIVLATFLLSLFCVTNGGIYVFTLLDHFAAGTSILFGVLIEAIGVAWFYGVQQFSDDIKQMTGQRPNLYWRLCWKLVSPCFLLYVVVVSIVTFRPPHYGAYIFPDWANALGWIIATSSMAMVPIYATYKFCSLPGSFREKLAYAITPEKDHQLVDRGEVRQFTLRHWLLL
- test.name: Inhibition of [3H]dopamine reuptake at rat brain frontal cortex dopamine transporter

COc1ccc2cc([C@H](O)[C@@H](C)N3CCN(Cc4ccccc4)CC3)ccc2c1Cl :: 10 µM
COc1ccc2cc([C@@H](O)[C@@H](C)N3CCN(Cc4ccccc4)CC3)ccc2c1Cl :: > 1000 µM

Looking up `COc1ccc2cc([C@H](O)[C@H](C)N3CCN(Cc4ccccc4)CC3)ccc2c1Cl` , I see its IC50 listed as > 1000 µM

====

- System: Mus musculus
- test.name: Toxicity in po dosed mouse
- Format: organism-based
- condition.context: in vivo
reported.endpoint: LD50 (mg/kg)
Give the value, in units of mg/kg, as a plain number.

COc1ccc2cc([C@H](O)[C@@H](C)N3CCN(Cc4ccccc4)CC3)ccc2c1Cl :: 1171

Looking up `COc1ccc2cc([C@H](O)[C@H](C)N3CCN(Cc4ccccc4)CC3)ccc2c1Cl` , I see its LD50 listed as 300
